test system: Ca Ski (cervical cancer); experiment: cells; assay type: cell-based; conditions: isolated compounds; IC50 HUVEC / IC50 Ca Ski
Please respond with 1 when measured SI (selectivity index) Ca Ski is strictly beneath 0.5, and with 0 in all other cases.

compound: CC1=CC(=O)C(=C(C)C)C[C@H]2[C@H]1CC[C@]2(C)O [Compound 6, procurcumenol]
assigned-category: 1
--
compound: C/C1=C\CC[C@@]2(C)O[C@@H]2CC(C)(C)/C=C/C1=O [Compound 8, zerumbone epoxide]
assigned-category: 1
--
compound: CC1=CCCC2(C)OC2C(=O)c2c(C)coc2C1 (stereo not drawn) [Compound 9, zederone]
assigned-category: 1
--
compound: CC1=C[C@]2(O)O[C@@]3(CC2=C(C)C)[C@@H](C)CC[C@@H]13 [Compound 5, curcumenol]
assigned-category: 0
--
compound: CC(C)=C1CC(=O)[C@@H](C)CC/C=C(\C)CC1=O [Compound 2, dehydrocurdione]
assigned-category: 0
--
compound: CC(C)=C1C/C=C(\C)CC/C=C(\C)CC1=O [Compound 7, germacrone]
assigned-category: 0
--
compound: C=C1CC[C@H]2C(C)(C)CCC[C@]2(C)[C@H]1C/C=C(/C=O)CC=O [Compound 1, labda-8(17),12 diene-15,16 dial]
assigned-category: 0

====

tested on: HT-29 (colon cancer); experiment: MTT cytotoxicity assay, HT-29; type: cell-based; settings: MTT assay
recorded-endpoint: antiproliferative/cytotoxic activity against HT-29 (in words)

molecule: CC1=CC(=O)C(=C(C)C)C[C@H]2[C@H]1CC[C@]2(C)O [Compound 6, procurcumenol]
measured-result: good cytotoxic effect

molecule: C/C1=C\CC[C@@]2(C)O[C@@H]2CC(C)(C)/C=C/C1=O [Compound 8, zerumbone epoxide]
measured-result: good cytotoxic effect
